Property: GI50; scope: individual compounds
- Tested on: HCC 2998
- method-description: Cytotoxicity against human HCC2998 cells after 48 hrs by SRB assay
- Format: functional
- conditions-used: HCC 2998, 48 h
Numbers only; they are read as µM.

Test item O=CN1N=C(c2ccc(Nc3ccnc4cc(Cl)ccc34)cc2)CC1c1ccccc1 (stereo not given) ; HCC 2998; reported GI50 was 3.5

Test item COc1ccc(C2CC(c3ccc(Nc4ccnc5cc(Cl)ccc45)cc3)=NN2C=O)cc1 (stereo not given) ; HCC 2998; reported GI50 was 18.1

Test item COc1ccc(C2CC(c3cccc(Nc4ccnc5cc(Cl)ccc45)c3)=NN2C=O)cc1 (stereo not given) ; HCC 2998; reported GI50 was 1.32

Test item "COc1cccc2c1C(=O)c1c(O)c3c(c(O)c1C2=O)C[C@@](O)(C(=O)CO)C[C@@H]3O[C@H]1C[C@H](N)[C@H](O)[C@H](C)O1" ; HCC 2998; reported GI50 was 0.26
